Target or system: PI 3-kinase beta (Homo sapiens, UniProt P42338)
Sequence (P42338 whole entry): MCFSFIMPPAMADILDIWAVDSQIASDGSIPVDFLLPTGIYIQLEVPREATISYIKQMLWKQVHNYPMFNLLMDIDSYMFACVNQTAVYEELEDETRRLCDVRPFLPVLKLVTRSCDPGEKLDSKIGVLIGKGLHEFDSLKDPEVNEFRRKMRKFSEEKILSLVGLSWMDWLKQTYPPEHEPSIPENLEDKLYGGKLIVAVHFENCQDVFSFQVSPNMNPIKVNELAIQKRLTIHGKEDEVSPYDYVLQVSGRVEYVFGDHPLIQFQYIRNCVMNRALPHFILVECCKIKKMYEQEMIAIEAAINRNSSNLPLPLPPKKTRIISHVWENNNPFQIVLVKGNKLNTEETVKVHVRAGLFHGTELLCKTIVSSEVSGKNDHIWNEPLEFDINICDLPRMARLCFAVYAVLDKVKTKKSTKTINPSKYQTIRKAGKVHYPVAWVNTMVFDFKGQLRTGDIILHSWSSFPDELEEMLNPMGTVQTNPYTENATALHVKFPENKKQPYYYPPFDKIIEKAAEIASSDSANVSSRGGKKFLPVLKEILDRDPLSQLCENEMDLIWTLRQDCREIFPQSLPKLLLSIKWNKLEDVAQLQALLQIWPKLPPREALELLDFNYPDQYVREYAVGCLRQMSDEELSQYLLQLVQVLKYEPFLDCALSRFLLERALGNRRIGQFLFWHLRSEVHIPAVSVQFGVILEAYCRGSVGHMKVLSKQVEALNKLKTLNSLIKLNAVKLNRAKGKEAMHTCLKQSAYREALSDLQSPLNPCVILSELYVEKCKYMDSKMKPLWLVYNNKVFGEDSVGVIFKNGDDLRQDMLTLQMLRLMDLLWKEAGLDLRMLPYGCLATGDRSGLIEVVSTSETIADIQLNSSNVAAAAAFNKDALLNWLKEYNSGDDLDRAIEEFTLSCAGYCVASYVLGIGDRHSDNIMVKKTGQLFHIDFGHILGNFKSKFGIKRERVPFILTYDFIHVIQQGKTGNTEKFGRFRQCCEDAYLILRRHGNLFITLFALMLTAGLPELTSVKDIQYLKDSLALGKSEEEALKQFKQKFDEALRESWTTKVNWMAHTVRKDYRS
Sequence (P27986 461-568 partner): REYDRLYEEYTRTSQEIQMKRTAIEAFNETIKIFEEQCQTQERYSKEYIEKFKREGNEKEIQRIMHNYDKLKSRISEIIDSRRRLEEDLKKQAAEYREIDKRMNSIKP
Protocol summary: Kinase Glo Luminescent Kinase Assay (Kglo), assay B
Assay type: biochemical
Reported conditions: read-out: Assay B PI3Kβ IC50
Measured parameter: pIC50
Give bare numbers, as −log10 of the molar value.

{"columns": ["Compound", "pIC50"],
 "data": [
  ["Cc1ccc(S(=O)(=O)NC[C@H]2CCOC2)cc1-c1cnc(N)c(-c2cn(C)nc2C)n1 [Example 16]", 5.99],
  ["Cc1ccc(S(=O)(=O)NCC2(C(N)=O)CC2)cc1-c1cnc(N)c(-n2cncn2)n1 [Example 127.56]", 5.92]
]}

Please turn your attention to the following entry.
The value of pIC50 measured for the compound Cc1ccc(S(=O)(=O)NC2CC3(CC(O)C3)C2)cc1-c1cnc(N)c(-c2cn(C)nc2C)n1 (single isomer, unassigned) [Example 9a] turned out to be 6.27

---

Target or system: PI 3-kinase alpha (Homo sapiens, UniProt P42336)
Sequence (P42336 whole entry): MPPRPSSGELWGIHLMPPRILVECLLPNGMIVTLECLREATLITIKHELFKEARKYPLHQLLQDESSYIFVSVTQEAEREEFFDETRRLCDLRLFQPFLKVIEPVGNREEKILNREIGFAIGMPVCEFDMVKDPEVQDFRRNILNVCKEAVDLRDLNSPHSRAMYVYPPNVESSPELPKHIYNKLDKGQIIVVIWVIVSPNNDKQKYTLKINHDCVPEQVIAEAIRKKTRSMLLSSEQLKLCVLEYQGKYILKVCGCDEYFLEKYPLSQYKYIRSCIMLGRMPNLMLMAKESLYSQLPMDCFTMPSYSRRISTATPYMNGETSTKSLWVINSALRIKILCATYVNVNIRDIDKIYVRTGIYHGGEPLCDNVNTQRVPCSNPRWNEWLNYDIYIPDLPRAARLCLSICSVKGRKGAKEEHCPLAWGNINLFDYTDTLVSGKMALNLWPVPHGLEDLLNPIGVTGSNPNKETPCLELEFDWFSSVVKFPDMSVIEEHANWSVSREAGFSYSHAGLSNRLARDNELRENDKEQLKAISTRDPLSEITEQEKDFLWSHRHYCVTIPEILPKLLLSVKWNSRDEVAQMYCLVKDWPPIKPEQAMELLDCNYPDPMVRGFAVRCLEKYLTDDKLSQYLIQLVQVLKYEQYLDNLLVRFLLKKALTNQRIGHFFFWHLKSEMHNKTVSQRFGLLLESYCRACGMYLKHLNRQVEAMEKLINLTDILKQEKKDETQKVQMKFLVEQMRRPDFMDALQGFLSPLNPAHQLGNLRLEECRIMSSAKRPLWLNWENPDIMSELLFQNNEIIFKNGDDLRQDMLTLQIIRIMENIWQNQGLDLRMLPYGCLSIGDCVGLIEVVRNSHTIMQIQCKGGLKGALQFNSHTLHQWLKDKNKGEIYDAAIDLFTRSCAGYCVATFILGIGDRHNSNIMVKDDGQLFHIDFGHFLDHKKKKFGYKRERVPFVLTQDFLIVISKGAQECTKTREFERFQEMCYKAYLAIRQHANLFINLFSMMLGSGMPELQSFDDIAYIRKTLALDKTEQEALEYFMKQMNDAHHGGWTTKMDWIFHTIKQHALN
Protocol summary: Kinase Glo Luminescent Kinase Assay (Kglo), assay A
Format: biochemical
Reported conditions: read-out: Assay A PI3Kα IC50
Measured parameter: pIC50
One number for each entry, as −log10 of the molar value.

For each of the items listed, what is its pIC50?
1. Cc1ccc(S(=O)(=O)NCC2COC2)cc1-c1cnc(N)c(-n2cncn2)n1
2. Cc1ccc(S(=O)(=O)NC2CCC(CO)CC2)cc1-c1cnc(N)c(-n2cncn2)n1 (stereo not drawn)
3. Cc1ccc(S(=O)(=O)N[C@H]2CCOC2)cc1-c1cnc(N)c(-n2cncn2)n1

Out:
6.43
6.41
6.44

---

Target or system: UniProt:P42338
Protocol summary: Kinase Glo Luminescent Kinase Assay (Kglo), assay B
Type: biochemical
Reported conditions: read-out: Assay B PI3Kβ IC50
For each entry below, report its pIC50 value.
One number for each entry, as −log10 of the molar value.

Worked cases, answers included:
{"columns": ["Compound", "Target or system", "pIC50"],
 "data": [
  ["Cc1ccc(S(=O)(=O)NCC(C)(C)O)cc1-c1cnc(N)c(-c2noc(C3CC3)n2)n1 [Example 91]", "UniProt:P42338", 5.59],
  ["Cc1cc(-c2nc(-c3cc(S(=O)(=O)NCC4CCCO4)ccc3C)cnc2N)ccn1 (stereo not shown) [Example 129.17]", "UniProt:P42338", 5.26],
  ["Cc1ccc(S(=O)(=O)NCC(C)(C)O)cc1-c1cnc(N)c(-n2cc(C)c(C)n2)n1 [Example 47]", "UniProt:P42338", 5.22],
  ["Cc1ccc(S(=O)(=O)NC2CCOCC2)cc1-c1cnc(N)c(-n2cncn2)n1 [Example 68]", "UniProt:P42338", 5.59],
  ["Cc1cc(-c2nc(-c3cc(S(=O)(=O)NC[C@H](C)O)ccc3C)cnc2N)ccn1 [Example 129.9]", "UniProt:P42338", 5.16],
  ["Cc1cc(-c2nc(-c3cc(S(=O)(=O)N[C@H]4CCC[C@@H]4N)ccc3C)cnc2N)ccn1 [Example 129.38]", "UniProt:P42338", 5.57]
]}

get_value(item= Cc1ccc(S(=O)(=O)NC(C)C(C)C)cc1-c1cnc(N)c(-n2cncn2)n1 (stereo not shown) [Example 127.44] , readout=pIC50) returns 5.66

src = patent US10004732B2
